# run description: melting temperature; fluorescence melt of hairpins on a sequencing array, two-state fit, raised by 9.35 °C to match UV melts
# condition info: sodium 0.088 M
Catalogue of Tm readings, one per entry.
Give your result in °C as a bare value.

// Tm lookup, sequence = GCCGCCGAAAGGCCCGGC ((((((....)))..))) , result: 48

Value of Tm reported for the sequence GCGTCACAACGC ((((....)))) is 55.2

The recorded Tm for entry GATCTACGTATAGATC ((((((....)))))) equals 41.2

Reported Tm of GGCCGTGGAAACACAGCC (((.(((....))).))) : 50.1

Sure, the documented Tm for GAATCCCGAAAGGGTTTC (((.(((....))).))) is 45.6

Tm measured on GAATCGGGAAACTGATTC (((((.(....).))))) = 45.5

Looking up GGAGAAGGAAACTTCTTC (.(((((....))))).) , I found its Tm recorded as 36.7

====

# run description: melting temperature; fluorescence melt of hairpins on a sequencing array, two-state fit, raised by 9.35 °C to match UV melts
# condition info: sodium 0.088 M
Below, each entry is listed alongside its reported Tm.
Give just the numeric value; °C need not be written.

Known Tm results, listed for orientation:
GCAGTCGAAAGACTGTGC ((((((....)))..)))
55.3
GTTTAGGGAAACCTGAAC (((.(((....))).)))
38.5
GTGCACGGAAACGTACAC (((.(((....))).)))
48.5
GGACACGAAAGTGATTCC ((((((....)))..)))
31.7
GATCCACCCGTGGATC ((((((....))))))
57.9

Now for another entry.
In plain terms, CGTTGGCGGAAACGCACG (((..(((....)))))) has a documented Tm of 41.1

====

# run description: melting temperature; fluorescence melt of hairpins on a sequencing array, two-state fit, raised by 9.35 °C to match UV melts
# condition info: sodium 0.088 M
Label T when Tm >= 40 °C; otherwise F.

Solved entries:
GGTACCGAAAGGTACACC ((((((....)))..)))
T
GTCTTCGAAAGAAGGGAC ((((((....)))..)))
F
GCTATACGAAAGTAAAGC (((.(((....))).)))
T
GCGTAATGACGC ((((....))))
T

Now look at this one.
Item GATCTCGACCGAGATC ((((((....)))))) with Tm of 40 °C or above? T

====

Reported folding enthalpy is given for each of the following sequences.
# run description: folding enthalpy; higher = less favourable; fluorescence melt of hairpins on a sequencing array, two-state fit
# condition info: sodium 0.088 M
Form entry: value (kcal/mol) — number only.

Look over these answered cases.
GCGCAGCCGAAAGGCCGC (((..(((....))))))
-16.7
GACAACGAAAGTTCGTC ((((((....))).)))
-21
GAAGGGCGAAAGCCATTC (((.(((....))).)))
-22.2
GGAAACGAAAGTTCTCC ((((((....))).)))
-16.8
GATCAGGCCTCTGATC ((((((....))))))
-49.2

Lab note: GATAACACGAAAGTGATC (((..(((....)))))) gave folding enthalpy of -10.1

The measured folding enthalpy associated with GATCCAGCTTGGATC ((((((...)))))) reads -32.9

Reported folding enthalpy of CGTTAGCGGAAACGCACG (((..(((....)))))) : -18.1

====

# run description: melting temperature; fluorescence melt of hairpins on a sequencing array, two-state fit, raised by 9.35 °C to match UV melts
# condition info: sodium 0.088 M
Below is a list of entries, each paired with its recorded Tm value.
# number only, unit °C dropped from output

GTGTCGCGAAAGCGCAC (((.(((....))))))
56.6
GAAGGCGGAAACACCTTC (((((.(....).)))))
42.7

Quick note, Tm for GATCTGCCCCCAGATC ((((((....)))))) landed at 48.3

// recorded Tm for GGGCTTGGAAACAAGTCC ((.((((....)))).)) : 54.6

Just so you know, measured Tm for GATCGTATTGACGATC ((((((....)))))) came out at 55

The measured Tm associated with GTTTTAGCGAAAGCTAAC (((..(((....)))))) reads 33

====

Each record here notes measured folding enthalpy.
# run description: folding enthalpy; higher = less favourable; fluorescence melt of hairpins on a sequencing array, two-state fit
# condition info: sodium 0.088 M
Answer in kcal/mol, number only, no unit symbol.

Solved entries:
GCACAGGGAAACCTGTGC (((((((....)))))))
-38
GATCACGATGTGATC ((((((...))))))
-30.8
GCGTTGCGAAAGCTATGC ((.(.((....)).).))
-23.7
GCCACTGGAAACAACGGC (((..((....))..)))
-17.3
GATCTCCGATGAGATC ((((((....))))))
-31.3

Reported folding enthalpy of GATCACCAGTGTGATC ((((((....)))))) : -47.5

====

# run description: folding enthalpy; higher = less favourable; fluorescence melt of hairpins on a sequencing array, two-state fit
# condition info: sodium 0.088 M
readout label: folding enthalpy (kcal/mol)
Just the number please, in kcal/mol, no unit attached.

GTGCCACGAAAGTGACAC (((.(((....))).)))
-40.9
GGCTGTCGAAAGACTGCC (((.(((....))).)))
-41.2
GCTACCGAAAGGTAAAGC ((((((....)))..)))
-19.8
GTTGCAGAAATGCAAC ((((((....))))))
-35.3
GCTCTCGAAAGAGCGAGC ((((((....)))..)))
-15.1
GCCGCTGGAAACAACGGC ((((.((....)).))))
-37.1

// folding enthalpy lookup, sequence = GATGAACGAAAGTTATC (((.(((....)))))) , result: -11.1

What the record says about GATCTATGGATAGATC ((((((....)))))) : folding enthalpy is -29.5

Just so you know, measured folding enthalpy for GGATAGAAATATCC (((((....))))) came out at -17.5

Reported folding enthalpy for GACCCCGAAAGGGACGTC ((((((....)))..))) was -17

Note to self: folding enthalpy recorded for GCCGGCGAAAGCCTGGGC ((((((....)))..))) was -24.5

Please fill in: folding enthalpy reported for GAGAAAGGAAACTTTCCC (.(((((....))))).) = -12.3

====

# run description: folding enthalpy; higher = less favourable; fluorescence melt of hairpins on a sequencing array, two-state fit
# condition info: sodium 0.088 M
# binarize folding enthalpy: threshold -20 kcal/mol inclusive, high side YES, low side NO

Sample answers from the record:
GGTGAACGAAAGTTTACC (((.(((....))).)))
NO
GGCCGACGAAAGTCGCC (((.(((....))))))
YES
GCCTGCGAAAGCATCGGC ((((((....)))..)))
YES

# bool: folding enthalpy of GCAAAACGAAAGTTATGC (((.(((....))).))) >= -20 kcal/mol NO

Hi, just wondering whether GGGCACCGAAAGGTCCC (((.(((....)))))) shows folding enthalpy of -20 kcal/mol or higher. NO

Entry GCAGACGGAAACGCCTGC ((((.((....)).)))) : is its folding enthalpy no less than -20 kcal/mol? NO

Determine whether measured folding enthalpy meets or exceeds -20 kcal/mol for GATCAAATTTTTGATC ((((((....)))))) NO

====

# run description: folding enthalpy; higher = less favourable; fluorescence melt of hairpins on a sequencing array, two-state fit
# condition info: sodium 0.088 M
# folding enthalpy >= -20 kcal/mol gives t, anything below gives f

Here are 3 sequences together with their reported answers.
GGACAGACGAAAGTCTCC (((..(((....))))))
t
GATGACGAAAGTCAATC ((((((....))).)))
t
GCAGTCGAAAGACAGTGC ((((((....)))..)))
t

Continue with the sequence presented below.
Could you tell me if the measured folding enthalpy of GTACCTCGAAAGAGTAC (((.(((....)))))) reaches -20 kcal/mol or more? f

====

# run description: melting temperature; fluorescence melt of hairpins on a sequencing array, two-state fit, raised by 9.35 °C to match UV melts
# condition info: sodium 0.088 M
Note to self: values exactly at 50 °C are Criterion met. So Tm at or above 50 °C is Criterion met, below is Criterion not met.

Quick check: does GCTGGGCGAAAGCACTGC ((.(.((....)).).)) have Tm greater than or equal to 50 °C? Criterion met

Reported Tm at or above 50 °C? GCCTAGGCGAAAGCCGGC (((..(((....)))))) Criterion met

Evaluate GATGTGCGAAAGCAAATC (((.(((....))).))) : Tm at minimum 50 °C? Criterion not met

Test whether the sequence GATCATCTGATGATC ((((((...)))))) records Tm of 50 °C or higher. Criterion not met

Assess whether reported Tm for CGTGCGGAAACGCCACG ((((((....))).))) sits at 50 °C or higher. Criterion met

Does Tm meet or surpass 50 °C for GATCAGGAATCTGATC ((((((....)))))) ? Criterion met
